Test: Cytotoxicity against human JeKo1 cells assessed as growth inhibition after 72 hrs by MTT assay
Type: functional, cell-based
Details: JeKo-1, 72 h
parameter: IC50
Provide the measurement as a number trailed by its unit.

1) CCOC(=O)[C@]1(C)CCC[C@@]2(C)[C@@H]3CC[C@@]4(C)C[C@]3(CC[C@@H]21)[C@H](CO)[C@H]4NC(=S)Nc1cccc([N+](=O)[O-])c1 ... 5.26 µM
2) CCOC(=O)[C@]1(C)CCC[C@@]2(C)[C@@H]3CC[C@@]4(C)C[C@]3(CC[C@@H]21)[C@H](CO)[C@H]4N ... 3.54 µM

Report IC50 for every entry below.
1. CCOC(=O)[C@]1(C)CCC[C@@]2(C)[C@@H]3CC[C@@]4(C)C[C@]3(CC[C@@H]21)[C@H](CO)[C@H]4NC(=S)Nc1ccc(C)cc1
2. CCOC(=O)[C@]1(C)CCC[C@@]2(C)[C@@H]3CC[C@@]4(C)C[C@]3(CC[C@@H]21)[C@H](CO)[C@H]4NC(=S)Nc1cccc(Br)c1
3. CCOC(=O)[C@]1(C)CCC[C@@]2(C)[C@@H]3CC[C@@]4(C)C[C@]3(CC[C@@H]21)[C@H](CO)[C@H]4N=C=S

1. 30.2 µM
2. 27.3 µM
3. 30.1 µM

* * *

Assay: Cytotoxicity against human HGC27 cells assessed as growth inhibition after 72 hrs by MTT assay
Format: functional, cell-based
Conditions: HGC-27, 72 h
Mark true (1) only when IC50 stays strictly below 5 µM. Values equal to the cut-off are false (0).

Recorded results for 3 compounds are shown here.
1) CCOC(=O)[C@]1(C)CCC[C@@]2(C)[C@@H]3CC[C@@]4(C)C[C@]3(CC[C@@H]21)[C@H](CO)[C@H]4NC(=S)Nc1cccc(Cl)c1 ... false (0)
2) CCOC(=O)[C@]1(C)CCC[C@@]2(C)[C@@H]3CC[C@@]4(C)C[C@]3(CC[C@@H]21)[C@H](CO)[C@H]4NC(=S)Nc1ccc(Cl)cc1Cl ... true (1)
3) C=C[C@]12CC[C@H]3[C@@](C)(CCC[C@@]3(C)C(=O)OCC)[C@@H]1CC[C@](C)(CN=C=S)C2 ... false (0)

Quick check: IC50 of `C=C[C@]12CC[C@H]3[C@@](C)(CCC[C@@]3(C)C(=O)OCC)[C@@H]1CC[C@](C)(CN)C2` under 5 µM?
true (1)

// same read-out, input: `CCOC(=O)[C@]1(C)CCC[C@@]2(C)[C@@H]3CC[C@@]4(C)C[C@]3(CC[C@@H]21)[C@H](CO)[C@H]4N`
false (0)

Next record, please: `CCOC(=O)[C@]1(C)CCC[C@@]2(C)[C@@H]3CC[C@@]4(C)C[C@]3(CC[C@@H]21)[C@H](CO)[C@H]4N=C=S`
false (0)
